Ref: PubChem BioAssay (NCI)

EXPERIMENTAL DETAILS: NCI Yeast Anticancer Drug Screen. Data for the mec2-1 strain (AID 157)
CONDITION LABEL: S. cerevisiae mec2-1 strain, at 50.0 µM
Compounds without any hit were thinned out: in the full panel of roughly 79,000, 15% have a hit. Calls of active or inactive are those of the source. Cut-off read from the data, not from the text of the source: active = growth inhibition above about 70%; inactive = the rest.
Bench note: report the call from active, inactive

Which result was noted for this compound in the test: `O=[N+]([O-])c1ccc(-n2ncc3cccnc32)c([N+](=O)[O-])c1`
active

Which result was noted for this compound in the test: CCC1OC(OC)C=CC1=O (stereo not given)
active

Which result was noted for this compound in the test: `C[N+](C)=c1ccc2nc3c(cc(NCCCNc4cc5oc6cc(=[N+](C)C)ccc-6nc5c5ccccc45)c4ccccc43)oc-2c1`
inactive

Which result was noted for this compound in the test: `Cc1occc1C(=S)Nc1ccc(Cl)c(C(=O)OCC(C)C)c1`
inactive

Which result was noted for this compound in the test: O=C(CNC(=O)C(CSCc1ccccc1)NC(=O)OCc1ccccc1)Oc1c(Cl)c(Cl)c(Cl)c(Cl)c1Cl (stereo not given)
inactive

Which result was noted for this compound in the test: `O=C(c1cccc(Cl)c1)c1ccc2ccccc2c1C(=O)O`
inactive

Which result was noted for this compound in the test: `CCOc1c(N=Nc2ccccc2OC)c(C)nn1C(N)=S`
inactive

Which result was noted for this compound in the test: `Cc1ccc2nc(-[n+]3cc4ccccc4cc3C)ccc2c1`
active

Which result was noted for this compound in the test: CCOC(=O)C(C(C)=O)C1=C(Cl)C(=O)c2ccccc2C1=O (stereo not given)
active

Which result was noted for this compound in the test: `O=C(C(Oc1ccc(Cl)cc1)Oc1ccc(Cl)cc1)N(O)c1ccccc1OCc1ccccc1`
inactive

---

EXPERIMENTAL DETAILS: NCI Yeast Anticancer Drug Screen. Data for the cln2 rad14 strain (AID 165);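 note: 0% = growth equal to vehicle treated cultures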
CONDITION LABEL: S. cerevisiae cln2 rad14 strain, at 5.0 µM (retest, dose inferred, filed as 0.5), active compounds read high
The panel holds about 79,000 compounds, 15% with a hit somewhere; the sample as a whole holds those more often.
For each entry below, report its growth inhibition value.
The reply should be a number in %, with the unit left off.

// growth inhibition lookup, compound = COc1cccc(C2c3cc4c(cc3OC(NNS(=O)(=O)c3ccc(C)cc3)C2C)OCO4)c1O (stereo not given) , result: 9

// growth inhibition lookup, compound = COc1cc(C(c2cc3c(cc2O)OCO3)N2CCOCC2)cc(OC)c1OC (stereo not given) , result: 4

// growth inhibition lookup, compound = O=C(CC1(O)C(=O)Nc2c(Cl)cc(Cl)cc21)c1ccc(Br)cc1 (stereo not given) , result: -8

// growth inhibition lookup, compound = `COC(=O)c1cc(-c2ccccc2)[nH]c(=O)c1C#N` , result: -36

// growth inhibition lookup, compound = `CC(C)(CN1CCCCC1)C(=O)/C=C/c1ccc(Cl)c(Cl)c1` , result: 28

---

EXPERIMENTAL DETAILS: NCI Yeast Anticancer Drug Screen. Data for the rad50 strain (AID 155);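 note: 0% = growth of vehicle-only cultures of the same strain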
CONDITION LABEL: S. cerevisiae rad50 strain growth inhibition; at 50.0 µM (retest, dose inferred, filed as 5.0); active compounds read high
The panel holds about 79,000 compounds, 15% with a hit somewhere; the sample as a whole holds those more often.
Label TRUE when growth inhibition >= 90%; otherwise FALSE.

Has `COc1ccc2c(C)cc(N/N=C/c3ccc(OC)c4ccccc34)nc2c1` a recorded growth inhibition greater than or equal to 90%?
TRUE

Has `CC(=O)c1cc(-c2ccccc2)nc2ccccc12` a recorded growth inhibition greater than or equal to 90%?
FALSE

Has `Clc1ccc2nc3c(c(N4CCOCC4)c2c1)CCCC3` a recorded growth inhibition greater than or equal to 90%?
TRUE

Has `CC(=O)c1cc(-c2ccc(C)cc2)nc2c(C)cc(C)cc12` a recorded growth inhibition greater than or equal to 90%?
FALSE

Has `N#CSCc1c(Cl)cccc1Cl` a recorded growth inhibition greater than or equal to 90%?
FALSE

---

EXPERIMENTAL DETAILS: NCI Yeast Anticancer Drug Screen. Data for the rad50 strain (AID 155);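 note: 0% = growth of vehicle-only cultures of the same strain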
CONDITION LABEL: S. cerevisiae rad50 strain growth inhibition; at 50.0 µM; active compounds read high
The panel holds about 79,000 compounds, 15% with a hit somewhere; the sample as a whole holds those more often.
Label 1 when growth inhibition >= 70%; otherwise -1.

Has `Cc1cc(N)c2c(c1O)C(=O)c1ccccc1C2=O` a recorded growth inhibition greater than or equal to 70%?
-1

Has `O=[N+]([O-])c1ccc(NSc2ccccc2)cc1` a recorded growth inhibition greater than or equal to 70%?
1

Has O=C(NCCN1CCN2Cc3[nH]c4ccccc4c3CC2C1)c1ccc(Cl)cc1 (configuration not stated) a recorded growth inhibition greater than or equal to 70%?
-1

Has O=C1NC2(C=Cc3c(ccc4ccccc34)O2)Oc2ccccc21 (configuration not stated) a recorded growth inhibition greater than or equal to 70%?
-1

Has `CCCCCCCCCCCCCCCCOP(=O)([O-])OCC[N+](C)(C)C` a recorded growth inhibition greater than or equal to 70%?
1

Has CC(/C(=N/NC(=O)C(N)=O)c1c(Cl)ccc(Cl)c1O)C1(O)C(=O)Nc2ccccc21 (configuration not stated) a recorded growth inhibition greater than or equal to 70%?
-1

Has `Cc1cc(Cl)ccc1OCC(=O)Oc1c(Cl)c(Cl)c(Cl)c(Cl)c1Cl` a recorded growth inhibition greater than or equal to 70%?
-1

Has `C=Cc1ccc(B2NCCO2)cc1` a recorded growth inhibition greater than or equal to 70%?
1

Has CCC(CCCN(CC)CCc1ccccc1)OC(=O)c1cc(OC)c(OC)c(OC)c1 (configuration not stated) a recorded growth inhibition greater than or equal to 70%?
-1

Has `CC[N+]1=C(/C=C\c2cc(C)c3cccnc3c2O)C(C)(C)c2ccccc21` a recorded growth inhibition greater than or equal to 70%?
-1

Has `NS(=O)(=O)c1ccc(NC(=S)/N=C\C(C(=O)c2ccccc2)=C(\O)c2ccccc2)cc1` a recorded growth inhibition greater than or equal to 70%?
-1

Has `Cc1cccc(Nc2c3c(nc4ccccc24)CCCCC3)c1` a recorded growth inhibition greater than or equal to 70%?
1

Has `CNC(=O)N1N[C@H](c2ccccc2)[C@@H]1c1ccccc1` a recorded growth inhibition greater than or equal to 70%?
-1

Has `Cc1ccc2c(ccc3c[n+]4c5ccccc5ccc4n32)c1` a recorded growth inhibition greater than or equal to 70%?
1

Has C=C1C(=O)OC2CC1C(O)C/C(C)=C/CC/C(C)=C/C(O)CC2C (configuration not stated) a recorded growth inhibition greater than or equal to 70%?
-1

Has `CC(C)CNc1cc(Cl)nc(N)n1` a recorded growth inhibition greater than or equal to 70%?
1

Has `O=C1c2ccccc2-c2ccccc2C(=O)C1(Br)Br` a recorded growth inhibition greater than or equal to 70%?
1

Has `Cc1ccc(S(=O)(=O)Nc2ccc3c(c2)Cc2cc([N+](=O)[O-])ccc2-3)cc1` a recorded growth inhibition greater than or equal to 70%?
1

Has `COC(=O)c1cc2c(c(C(=O)OC)c1O)C(=O)C=CC2=O` a recorded growth inhibition greater than or equal to 70%?
1

Has O=[N+]([O-])OC1CCCC(O[N+](=O)[O-])c2c1n([O-])c1ccccc1[n+]2=O (configuration not stated) a recorded growth inhibition greater than or equal to 70%?
1

Has COc1ccc2c(c1OC)C(C(Cl)(Cl)Cl)N1CCc3cc4c(cc3C1=C2)OCO4 (configuration not stated) a recorded growth inhibition greater than or equal to 70%?
-1

---

EXPERIMENTAL DETAILS: NCI Yeast Anticancer Drug Screen. Data for the sgs1 mgt1 strain (AID 161);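 note: 0% = growth of cultures given vehicle only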
CONDITION LABEL: S. cerevisiae sgs1 mgt1 strain, at 5.0 µM (retest, dose inferred, filed as 0.5)
This is part of a sample that, as a whole, favours compounds with a hit. Of some 79,000 tested, about 15% had one in any assay. Activity calls are given as the source filed them. Rule as the data show it: active = growth inhibition above about 70%; inactive = the rest.
Bench note: report the call from active, inactive

Which result was noted for this compound in the test: CCCCCCCCCCCC1C(C#N)C(=O)NC(=O)C1C#N (stereo unspecified)
active

Which result was noted for this compound in the test: COc1cccc2c1C(=O)c1c(O)c(COC3CC(N)C(O)C(C)O3)cc(O)c1C2=O (stereo unspecified)
inactive

Which result was noted for this compound in the test: CC1C=C(COC(=O)Nc2ccccc2)ON1c1ccccc1 (stereo unspecified)
inactive

Which result was noted for this compound in the test: `CC1=NC(=Cc2ccc(Cl)cc2)C(=O)N1n1c(-c2ccccc2)nc2ccccc2c1=O`
inactive

Which result was noted for this compound in the test: `O=C(O/N=C1/CCCC/C1=C\c1ccccc1)c1ccccc1`
inactive

Which result was noted for this compound in the test: `C/C(Cl)=N\OC(=O)Nc1ccc(C)cc1`
inactive
